# Target Entity: UniProtKB Q9H228
# Sequence (Q9H228 whole entry): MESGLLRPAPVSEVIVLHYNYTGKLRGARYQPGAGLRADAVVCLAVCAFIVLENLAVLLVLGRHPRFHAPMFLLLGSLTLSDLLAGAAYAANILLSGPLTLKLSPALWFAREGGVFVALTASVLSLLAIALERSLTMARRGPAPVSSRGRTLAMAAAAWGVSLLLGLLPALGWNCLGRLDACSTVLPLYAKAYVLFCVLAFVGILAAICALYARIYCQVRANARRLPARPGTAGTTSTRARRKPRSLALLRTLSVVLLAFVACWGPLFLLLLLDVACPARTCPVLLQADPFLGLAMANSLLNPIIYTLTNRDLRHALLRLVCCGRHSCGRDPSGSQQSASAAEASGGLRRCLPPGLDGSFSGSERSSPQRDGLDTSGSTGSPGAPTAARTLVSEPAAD
# Assay: Agonist activity at recombinant human S1PR5 expressed in CHO cell membranes assessed as [35S]GTP-gammaS binding measured after 1.5 hrs by TopCount scintillation counting method
Measurement Name: EC50 (nM)

Solved cases (2 shown):
1. O=C(O)CCCNCc1cc2cc(-c3ccc4ccccc4c3)ccc2s1: 143
2. O=C(O)CCNCc1cc2cccc(-c3ccc4ccccc4c3)c2s1: 280

[P] O=C(O)CCCNCc1cc2cccc(-c3ccc4ccccc4c3)c2s1
[Q] O=C(O)CCCCNCc1cc2c(-c3ccc4ccccc4c3)cccc2s1
Challenge: I need your help: which of the pair P , Q has higher EC50? // output: label of the selected item
Response given: P
